From: ChEMBL document CHEMBL5214911

Molecular target: UniProt P50406
Test: Displacement of [125I]cAMP-tracer from 5-HT6R in human HeLa cells assessed as measuring cAMP level incubated for 15 mins by radioimmunoassay
Assay type: cell-based
pKi: −log10 of the molar value.
READOUT: pKi

{"SMILES_REPR": "COc1cc(NS(=O)(=O)c2ccc(OC)c(N3CCNCC3)c2)c(Cl)cc1Cl", "QUANTITATIVE_READOUT": 9.01}

====

Target: 5-hydroxytryptamine receptor 6 (Homo sapiens, UniProt P50406)
Sequence (P50406 whole entry): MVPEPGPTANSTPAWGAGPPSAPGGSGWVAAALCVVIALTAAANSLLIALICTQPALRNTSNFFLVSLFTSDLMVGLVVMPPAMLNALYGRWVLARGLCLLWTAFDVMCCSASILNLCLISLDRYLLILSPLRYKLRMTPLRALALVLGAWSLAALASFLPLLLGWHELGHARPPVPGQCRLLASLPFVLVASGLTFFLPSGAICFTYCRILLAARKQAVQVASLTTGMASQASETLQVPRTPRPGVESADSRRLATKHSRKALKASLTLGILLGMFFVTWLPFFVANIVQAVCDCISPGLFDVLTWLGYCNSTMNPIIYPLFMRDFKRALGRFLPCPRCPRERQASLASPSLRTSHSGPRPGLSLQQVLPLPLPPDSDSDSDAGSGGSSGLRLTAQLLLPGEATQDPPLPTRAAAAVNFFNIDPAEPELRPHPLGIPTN
Assay: Binding affinity to 5-HT6R (unknown origin) assessed as inhibition constant
pKi: −log10 of the molar value.
Below, each entry is listed alongside its reported pKi.

{"COMPOUND": "CCOCC(Oc1c(C)cccc1C)N1CCN(c2ccccc2OC)CC1 (configuration not stated)", "pKi": 5.00}
{"COMPOUND": "CCOCC(Oc1c(C)cccc1Cl)N1CCN(c2ccccc2OC)CC1 (configuration not stated)", "pKi": 5.02}

====

Molecular target: UniProt P08908
Sequence (P08908 whole entry): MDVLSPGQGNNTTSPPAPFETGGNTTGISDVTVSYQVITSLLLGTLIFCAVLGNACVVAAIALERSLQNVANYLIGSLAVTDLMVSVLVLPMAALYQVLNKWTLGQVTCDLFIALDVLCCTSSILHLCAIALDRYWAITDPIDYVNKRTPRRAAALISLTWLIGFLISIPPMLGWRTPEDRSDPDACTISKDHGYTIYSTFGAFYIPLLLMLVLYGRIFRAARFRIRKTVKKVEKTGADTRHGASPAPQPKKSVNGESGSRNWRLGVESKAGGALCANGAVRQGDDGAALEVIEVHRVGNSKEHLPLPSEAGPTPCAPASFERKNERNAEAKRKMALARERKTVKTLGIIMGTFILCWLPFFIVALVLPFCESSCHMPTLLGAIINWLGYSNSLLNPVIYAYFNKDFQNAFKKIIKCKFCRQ
pKi: −log10 of the molar value.
READOUT: pKi

{"MOLECULE": "CCOCC(Oc1c(C)cccc1Cl)N1CCN(c2ccccc2OC)CC1 (configuration not stated)", "READOUT": "pKi", "QUALIFIER_OPERATOR": ">", "QUANTITATIVE_READOUT": 9.00}
{"MOLECULE": "CCOCC(Oc1c(C)cccc1C)N1CCN(c2ccccc2OC)CC1 (configuration not stated)", "READOUT": "pKi", "QUALIFIER_OPERATOR": "=", "QUANTITATIVE_READOUT": 7.39}

====

Molecular target: 5-hydroxytryptamine receptor 7 (Homo sapiens)
Sequence (P34969 whole entry): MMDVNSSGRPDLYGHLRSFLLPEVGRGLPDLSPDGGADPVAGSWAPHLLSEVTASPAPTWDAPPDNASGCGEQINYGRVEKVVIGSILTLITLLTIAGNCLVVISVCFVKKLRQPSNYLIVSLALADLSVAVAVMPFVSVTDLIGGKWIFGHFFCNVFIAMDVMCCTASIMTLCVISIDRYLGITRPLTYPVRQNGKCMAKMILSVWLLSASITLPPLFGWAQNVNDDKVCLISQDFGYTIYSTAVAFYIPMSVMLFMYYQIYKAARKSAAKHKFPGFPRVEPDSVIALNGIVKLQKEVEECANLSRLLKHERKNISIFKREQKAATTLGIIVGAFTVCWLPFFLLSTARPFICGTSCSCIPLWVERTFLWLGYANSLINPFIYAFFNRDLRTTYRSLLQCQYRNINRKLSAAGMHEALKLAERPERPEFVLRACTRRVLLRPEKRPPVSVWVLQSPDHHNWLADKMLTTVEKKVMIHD
READOUT: Ki

{"COMPOUND": "CCN1CCCC1CNC(=O)c1cc(S(N)(=O)=O)ccc1OC (centres undefined) [SULPIRIDE]", "RESULT": "> 3000 nM"}
{"COMPOUND": "CCOCC(Oc1c(C)cccc1C)N1CCN(c2ccccc2OC)CC1 (centres undefined)", "RESULT": "156 nM"}
{"COMPOUND": "CCOCC(Oc1c(C)cccc1Cl)N1CCN(c2ccccc2OC)CC1 (centres undefined)", "RESULT": "34 nM"}
{"COMPOUND": "Clc1ccc(-c2nn(Cc3ccccc3)c3c2CCNCC3)cc1 [JNJ-18038683 FREE BASE]", "RESULT": "3 nM"}
